# test system: T1, human PCSK9 D374Y gain-of-function mutant (human, UniProt Q8NBP7 31-692)
# T1 construct: It was AF647-labelled in the HepG2 cell-based assay and unlabelled in SPR; also called Human PCSK9 GOF; hPCSK9 GOF
# assay details: ProteOn SPR, captured antibody, pH 5.8;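 note: antibodies captured on a GLC chip coated with anti-human Fc, rate constants from a 1:1 Langmuir fit of the sensorgrams, Kd derived from the fitted rates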
Recorded measurements of kon, one per entry
Reply with just the number (in M⁻¹ s⁻¹).

binder	kon (M⁻¹ s⁻¹)
CL-148219 QLT mutant (antibody, V domains shown) VH: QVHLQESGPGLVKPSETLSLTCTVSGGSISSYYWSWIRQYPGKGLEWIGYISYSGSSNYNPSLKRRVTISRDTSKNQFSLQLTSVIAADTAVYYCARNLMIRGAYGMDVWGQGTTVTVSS VL: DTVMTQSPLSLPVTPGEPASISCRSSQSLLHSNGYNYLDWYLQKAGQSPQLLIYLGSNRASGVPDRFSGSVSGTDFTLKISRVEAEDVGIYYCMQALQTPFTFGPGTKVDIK	606000
CL-274698 (antibody, V domains shown, Human antibody with a kappa light chain, derived from a PCSK9 knockout mouse) VH: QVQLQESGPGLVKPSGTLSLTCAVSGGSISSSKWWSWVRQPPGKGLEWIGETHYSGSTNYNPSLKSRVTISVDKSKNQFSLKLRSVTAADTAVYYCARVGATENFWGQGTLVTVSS VL: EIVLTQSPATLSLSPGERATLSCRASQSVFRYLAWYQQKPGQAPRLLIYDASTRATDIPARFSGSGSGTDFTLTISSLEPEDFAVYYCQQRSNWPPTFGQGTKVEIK	1.53e+06

Need kon of CL-148489 (antibody, V domains shown, Human antibody with a kappa light chain) VH: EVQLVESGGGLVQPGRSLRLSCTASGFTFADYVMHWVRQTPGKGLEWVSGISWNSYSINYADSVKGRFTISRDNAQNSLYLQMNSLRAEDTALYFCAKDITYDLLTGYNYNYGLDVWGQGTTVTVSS VL: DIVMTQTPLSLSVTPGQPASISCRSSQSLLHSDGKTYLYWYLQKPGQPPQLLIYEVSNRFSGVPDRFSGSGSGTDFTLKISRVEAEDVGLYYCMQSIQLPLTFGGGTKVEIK , thanks. 1.37e+06

Need kon of CL-148219 (antibody, V domains shown, NLT motif in heavy chain framework 3 confirmed N-glycosylated by mass spectrometry, Human antibody, captured through anti-human Fc in the SPR assay) VH: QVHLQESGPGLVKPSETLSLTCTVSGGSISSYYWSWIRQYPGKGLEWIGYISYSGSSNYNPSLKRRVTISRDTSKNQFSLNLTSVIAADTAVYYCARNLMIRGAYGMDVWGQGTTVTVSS VL: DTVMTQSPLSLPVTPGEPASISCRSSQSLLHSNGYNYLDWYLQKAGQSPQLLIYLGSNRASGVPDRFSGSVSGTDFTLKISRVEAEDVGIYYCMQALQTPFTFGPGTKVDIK , thanks. 908000
